Data credit: the supplement of paper PMC10567573

B1: BTBD10 (parent)
chain: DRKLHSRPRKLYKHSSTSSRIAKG

- Variants of: B1
- TEST_PROTOCOL: protein stability index of a GFP-peptide fusion (GPS, HEK-293T) (PSI 1-6); higher = more stable;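 note: lentivirally expressed fusions sorted by FACS into six bins by GFP to DsRed ratio, PSI derived from sequencing read proportions per bin multiplied by bin number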
- CONDITIONS: c terminus: a fixed tail appended
PROPERTY_NAME: protein stability index
Numbers only.

Below: 5 variants and their reported protein stability index.
Item under review: `T17G` . Reported protein stability index?
2.9

Item under review: `S6F` . Reported protein stability index?
3.18

Item under review: `S6V` . Reported protein stability index?
3.91

Item under review: `Y12D` . Reported protein stability index?
4.27

Item under review: `S18K` . Reported protein stability index?
3.4

Go through the items and report each one's protein stability index.
1. T17H
2. R7I

3.63
3.31
